The measured values listed here are drawn from patent US20260167959A1.

- Test system: Renilla luciferase RNA
- ASSAY METHOD TEXT: Barcoded aptazyme variant library screen: un-cleaved Renilla luciferase RNA by barcode read counts, HEK293-T cells
- Assay type: cell-based
- CONDITION SUMMARY: un-cleaved Renilla luciferase RNA, HEK293-T cells cultured with 1 mM theophylline (ON) over without theophylline (OFF); barcode read counts, triplicate
OBSERVABLE: Fold change in RNA expression between the ON state and the OFF state (fold)
Numbers only, in fold.

# MOLECULE, UNITS OF MEASURE, MEASUREMENT
rows = [
    ("RA154 (nucleic acid, expressed or natural sequence) DNA: GCGCGTCCTGGATTCGCGGAAACGCGAGAATACCAGCATCGTCTTGATGCCCTTGGAAGTCTCGTACATCCAGCTGACGAGTCCCAAATAGGACGAAACGCGC", "fold", 1.3),
]

// next entry
Return reported Fold change in RNA expression between the ON state and the OFF state. Input molecule: RA257 (nucleic acid, expressed or natural sequence) DNA: GCGCGTCCTGGATTCGCGGAAACGCCGGAATACCAGCATCGTCTTGATGCCCTTGGAAGTCCGGTACATCCAGCTGACGAGTCCCAAATAGGACGAAACGCGC
1.1
